B1: Lysine-specific demethylase 2B, residues 656 to 722; numbered along this chain, Q8NHM5 (parent)
chain: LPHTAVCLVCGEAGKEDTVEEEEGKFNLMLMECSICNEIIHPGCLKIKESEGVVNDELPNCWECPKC

# Variants of: B1
# EXPERIMENTAL_PROTOCOL: abundance fitness (aPCA) (normalised: wild type 0, dead -1); higher = more abundant; growth selection in yeast, the domain comes from the species named
# RUN_PARAMETERS: Homo sapiens
Listed next: entries and their corresponding abundance fitness.
ATTRIBUTE_MEASURED: abundance fitness

INSERT INTO assay_data (seq_text, reported) VALUES
  ('LPHLAVCLVCGEAGKEDTVEEEEGKFNLMLMECSICNEIIHPGCLKIKESEGVVNDELPNCWECPKC [T4L]', -1.21),
  ('LPHTAVCLVCGEAGKEDTVEEEEGKFNLMLMECSICNEIIHPVCLKIKESEGVVNDELPNCWECPKC [G43V]', -0.302),
  ('LPHTAVCLVCGEAKKEDTVEEEEGKFNLMLMECSICNEIIHPGCLKIKESEGVVNDELPNCWECPKC [G14K]', -0.229),
  ('LPHTAVCLVCGEAGKEDTVESEEGKFNLMLMECSICNEIIHPGCLKIKESEGVVNDELPNCWECPKC [E21S]', 0.305),
  ('LPHTAVCLVCGEAGKEDTVEEEEGKFNLMLMECSICNEIIHPGCLKIKESEGVVNDELPNCEECPKC [W62E]', -0.439),
  ('LPHTAVCLVCGEAGKEDTVEEEEGKFNLMLMECSICNEIIHPGCLKIKESEGVVNDELPNCWECPEC [K66E]', -0.058),
  ('LPHTAVCLVCGEAGKEDTVEEEEGKFNLMLMECSICNEIIHPGCLKIKKSEGVVNDELPNCWECPKC [E49K]', -0.123),
  ('LPHTAVCLVCGEALKEDTVEEEEGKFNLMLMECSICNEIIHPGCLKIKESEGVVNDELPNCWECPKC [G14L]', -0.508),
  ('LPHTAVCLVCGEAGKEDTVEEEEGKFNLMLMECSICNEIIHPGCLKIKESEGVKNDELPNCWECPKC [V54K]', -0.125),
  ('LPHTAVCLVCGEAGKEDTVEEEEGKFNLMLMDCSICNEIIHPGCLKIKESEGVVNDELPNCWECPKC [E32D]', -0.324),
  ('LDHTAVCLVCGEAGKEDTVEEEEGKFNLMLMECSICNEIIHPGCLKIKESEGVVNDELPNCWECPKC [P2D]', 0.787),
  ('LPHTAVCLVCGEAGKEDTVEEEEGKFNLMLAECSICNEIIHPGCLKIKESEGVVNDELPNCWECPKC [M31A]', -0.18),
  ('LPHTAVCLVCGEAGAEDTVEEEEGKFNLMLMECSICNEIIHPGCLKIKESEGVVNDELPNCWECPKC [K15A]', -0.525),
  ('LPHTAVCLVCGEAGKEDTVEEEEGKFNLMLMECSICNEIIHPKCLKIKESEGVVNDELPNCWECPKC [G43K]', -0.219),
  ('LPHTAVCLVCGEAGKEDTVEEEEGKFNLMLMECSICNEIIHPGCLKIKESEGVVNDELPNCFECPKC [W62F]', -0.014),
  ('LPHTAVCLVCGEAGKEDTVEEEEGKFNLMAMECSICNEIIHPGCLKIKESEGVVNDELPNCWECPKC [L30A]', -0.35),
  ('LPHTAVCLVCGEAGKEDTVEEEEGKFNLMLMECSQCNEIIHPGCLKIKESEGVVNDELPNCWECPKC [I35Q]', -0.149),
  ('LPHTAVCLVCGEAGKEDTVEEEEGKFNLMLMECSYCNEIIHPGCLKIKESEGVVNDELPNCWECPKC [I35Y]', -0.548),
  ('LPHTAVCLVCGEAGKEDTVEEEEGKFNLMLMECSICNEIIHPGCKKIKESEGVVNDELPNCWECPKC [L45K]', -0.402),
  ('LPHTAVCLVCGEAGHEDTVEEEEGKFNLMLMECSICNEIIHPGCLKIKESEGVVNDELPNCWECPKC [K15H]', -0.65),
  ('LPHTAVCLVCGEAGKEDTVEEEEGKFNLMLMECSMCNEIIHPGCLKIKESEGVVNDELPNCWECPKC [I35M]', 0.023),
  ('LPHTPVCLVCGEAGKEDTVEEEEGKFNLMLMECSICNEIIHPGCLKIKESEGVVNDELPNCWECPKC [A5P]', 0.006),
  ('LPHTAVCLVCGEAGKEDTVEEEEGKFNLMLMECSICNEIIHPGCLKIKESEGVVNDELPTCWECPKC [N60T]', -0.091),
  ('LPHTAVCLVCGEAGKEDTVEEEEGKFNLMLMECSICNEIIHPGCLKIKESEGVVNIELPNCWECPKC [D56I]', -0.685),
  ('LPHTAVCLVCGEAGKEDTVEEEEGKFNLMLMECSICNEIIHPGCLKIKESEGVVNDELPNCWECRKC [P65R]', -0.364),
  ('LPHTAVCLVCGEAGKEDTVEEEEGKFNLMLMECSICNEIIHPGCLKIKESEEVVNDELPNCWECPKC [G52E]', -0.016),
  ('LPATAVCLVCGEAGKEDTVEEEEGKFNLMLMECSICNEIIHPGCLKIKESEGVVNDELPNCWECPKC [H3A]', -0.013),
  ('LPHTAVCLVCGEAGKEDTVEEEEGKFNLMPMECSICNEIIHPGCLKIKESEGVVNDELPNCWECPKC [L30P]', -0.435),
  ('LPHTAVCLVCGEAGKEDTVEEEEGNFNLMLMECSICNEIIHPGCLKIKESEGVVNDELPNCWECPKC [K25N]', -0.118),
  ('LPHTAVCLVCGEAGKEDTVEEEEGKFELMLMECSICNEIIHPGCLKIKESEGVVNDELPNCWECPKC [N27E]', -0.044),
  ('LPHTAVCLVCGEAGKEDTVEEEEGKFNLMLMECSICNEIIHPGCLKIKESEGVPNDELPNCWECPKC [V54P]', -0.065),
  ('LPHTAVCLVCGEAGKEDTVEEEEGPFNLMLMECSICNEIIHPGCLKIKESEGVVNDELPNCWECPKC [K25P]', -0.787),
  ('LPHTAVCLVCGEAGKEDTVEEEEGKFNLMLMECSICNEIIHPGCLKDKESEGVVNDELPNCWECPKC [I47D]', -0.261),
  ('LPHTAVCLVCGEAGKEDTVEEEEGKFNDMLMECSICNEIIHPGCLKIKESEGVVNDELPNCWECPKC [L28D]', -0.068),
  ('LPHTAVCLVCGEAGKEDTVEEEEGKFNLMLMECSICNEIIHPGCLKIKESEGVVNDELPNCLECPKC [W62L]', -0.391);
